IC50, SIK3 (Homo sapiens (Human)): measured values
Where a name gives a salt, the structure may show the parent alone.
Reply with just the number (in nM).

Use these answered entries as a reference point.
1) COc1cc2ncn(-c3ccc(C(N)=O)c(NCCc4cccc(Cl)c4)n3)c2cc1OC [Example 9] = 146
2) COc1cc2ncn(-c3ccc(C(N)=O)c(NC(CN)c4cccc(Cl)c4)n3)c2cc1OC (centres unmarked) [Example 10, hydrochloride] = 44.9
3) COc1cc2ncn(-c3ccc(C(N)=O)c(NC(CN)c4ccsc4)n3)c2cc1OC (centres unmarked) [Example 12, hydrochloride] = 69.2

Problem: Endpoint output: IC50 of Cc1ccc(Nc2ccc3ncn(-c4ccc(C(N)=O)c(OC(C)C(F)F)n4)c3c2)nn1 (centres unmarked) [Example 24] . Value?
Solution: 95.7

Problem: What does the record list as IC50 for COc1cc2ncn(-c3ccc(C(N)=O)c(NC(CCN)c4ccsc4)n3)c2cc1OC (centres unmarked) [Example 4, hydrochloride] ?
Solution: 114

Problem: Can you look up the measured IC50 of COc1nn(C)cc1-c1ccc2c(c1)ncn2-c1ccc(C(C)=O)c(-n2nc(C#N)cc2C)n1 [Example 38] for me?
Solution: 1790

Problem: What measured IC50 goes with COc1cc2ncn(-c3ccc(C(N)=O)c(NC(CCN)c4cccc(Cl)c4)n3)c2cc1OC (centres unmarked) [Example 11, hydrochloride] ?
Solution: 206

Problem: Give its IC50 value. Item: COc1cc2ncn(-c3ccc(C(N)=O)c(NC(CCN)c4ccccc4)n3)c2cc1OC (centres unmarked) [Example 5, hydrochloride]
Solution: 331

Problem: Would you mind telling me what IC50 value was observed for Cc1ccc(Nc2ccc3c(c2)ncn3-c2ccc(C=O)c(N3C[C@H](C#N)C[C@@H]3C)n2)nn1 [Example 33] ?
Solution: 562

Problem: Tell me the measured IC50 of CCNC(=O)c1ccc(-n2cnc3cc(OC)c(OC)cc32)nc1-c1cccc(C#N)c1 [Example 17] , please.
Solution: 21600

Problem: Give the measured IC50 of CC(=O)c1ccc(-n2cnc3cc(Nc4cccn(C)c4=O)ccc32)nc1-n1nc(C#N)cc1C [Example 37] .
Solution: 208

Problem: May I ask what IC50 has been recorded for COc1cc2ncn(-c3ccc(C(=O)O)c(N4CCCCC4)n3)c2cc1OC [Example 16] ?
Solution: 1670

Problem: Recorded IC50 of COC(=O)c1ccc(-n2cnc3cc(Nc4ccc(C)nn4)ccc32)nc1-n1nc(OC)cc1C [Example 26] , please.
Solution: 49.4

Problem: Could you tell me which IC50 is on file for COC(=O)c1ccc(-n2cnc3cc(OC)c(OC)cc32)nc1N1CCCCC1=O [Example 14] ?
Solution: 18000

---

SIK1 (Homo sapiens (Human), UniProt P57059) IC50 data
Sequence (P57059 whole entry): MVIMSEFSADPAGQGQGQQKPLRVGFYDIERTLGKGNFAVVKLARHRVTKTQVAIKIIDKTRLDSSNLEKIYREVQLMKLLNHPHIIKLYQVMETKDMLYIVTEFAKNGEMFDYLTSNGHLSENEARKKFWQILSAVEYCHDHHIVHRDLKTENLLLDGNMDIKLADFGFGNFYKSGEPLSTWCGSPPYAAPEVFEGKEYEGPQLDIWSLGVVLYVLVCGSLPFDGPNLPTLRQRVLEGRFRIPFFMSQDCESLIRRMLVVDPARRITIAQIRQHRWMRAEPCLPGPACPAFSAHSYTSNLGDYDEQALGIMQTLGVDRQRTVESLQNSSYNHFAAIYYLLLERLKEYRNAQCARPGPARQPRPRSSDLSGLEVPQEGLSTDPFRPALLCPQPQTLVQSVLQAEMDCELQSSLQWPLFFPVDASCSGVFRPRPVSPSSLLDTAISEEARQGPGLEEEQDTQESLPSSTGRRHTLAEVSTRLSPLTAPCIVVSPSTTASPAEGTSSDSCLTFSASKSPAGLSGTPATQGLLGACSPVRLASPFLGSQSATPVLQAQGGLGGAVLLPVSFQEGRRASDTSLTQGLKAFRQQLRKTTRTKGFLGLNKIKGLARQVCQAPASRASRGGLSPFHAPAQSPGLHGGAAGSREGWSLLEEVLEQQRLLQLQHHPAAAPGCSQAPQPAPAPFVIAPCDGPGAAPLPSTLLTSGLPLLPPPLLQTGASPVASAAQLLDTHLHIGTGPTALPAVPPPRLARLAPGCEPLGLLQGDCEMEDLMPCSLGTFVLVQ
Where a name gives a salt, the structure may show the parent alone.
Enter your answer as a number in nM; do not include the unit.

1. COc1cc2ncn(-c3ccc(C(N)=O)c(NC(CCN)c4cccc(Cl)c4)n3)c2cc1OC (stereo not shown) [Example 11, hydrochloride] = 6.3
2. COC(=O)c1ccc(-n2cnc3cc(Nc4ccc(C)nn4)ccc32)nc1-n1nc(OC)cc1C = 17800

Problem: Value lookup for IC50; key = `CC(=O)c1ccc(-n2cnc3cc(Nc4ccc(C)nn4)ccc32)nc1-n1nc(C#N)cc1C`
Solution: 669

Problem: Entry COc1cc2ncn(-c3ccc(C(N)=O)c(NC(CCN)c4ccsc4)n3)c2cc1OC (stereo not shown) [Example 4, hydrochloride] : reported IC50 = ?
Solution: 3.4
